Values compiled from patent US9856279B2.

Biological target: IDH1 R132H (Homo sapiens, UniProt O75874, R132H)
Sequence (O75874 whole entry R132H): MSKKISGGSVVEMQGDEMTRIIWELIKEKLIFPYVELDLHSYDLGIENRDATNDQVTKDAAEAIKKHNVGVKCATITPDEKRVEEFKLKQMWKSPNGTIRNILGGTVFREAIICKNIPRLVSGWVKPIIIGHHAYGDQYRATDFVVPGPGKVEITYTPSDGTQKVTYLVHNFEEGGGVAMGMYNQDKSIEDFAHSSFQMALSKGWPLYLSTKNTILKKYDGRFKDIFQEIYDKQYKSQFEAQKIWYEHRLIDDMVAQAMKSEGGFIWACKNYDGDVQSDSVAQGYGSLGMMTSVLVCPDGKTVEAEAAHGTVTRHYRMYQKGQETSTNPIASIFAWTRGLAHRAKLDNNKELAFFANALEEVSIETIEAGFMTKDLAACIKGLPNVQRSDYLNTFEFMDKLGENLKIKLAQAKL
Experiment: Assay for IDH1 R132H inhibitors (NADPH/aKG, resazurin detection)
Format: biochemical
Settings: enzyme assay of Example 12; read-out: IDH1R132H IC50
pIC50: −log10 of the molar value.
Reported Endpoint: pIC50

// worked examples, pIC50 included
C=Cc1cnc2c(-c3c(C4CC4)nc(N4CCN(C(=O)CCOC)[C@H](C(C)C)C4)c(C#N)c3C)cccc2n1 | > 6.30
C=Cc1cc(Nc2cc(C#N)c(N3CCN(C(=O)COC)[C@H](C(C)C)C3)nc2C2CC2)ccn1 | > 6.30
COCCC(=O)N1CCN(c2nc(C3CC3)c(-c3cccs3)cc2C#N)C[C@H]1C | 6.00 to 6.30

Supply pIC50 value. Item: "CCOC(=O)[C@@H]1C[C@H]1C(=O)N1CCN(c2nc(C3CC3)c(-c3cccc4cnccc34)cc2C#N)C[C@H]1C"
6.00 to 6.30

Supply pIC50 value. Item: "C=Cc1cc(-c2cc(C#N)c(N3CCN(C(=O)CCOC)[C@H](C4CC4)C3)nc2C2CC2)c2cccnc2n1"
> 6.30

* * *

Molecular target: IDH1 R132H (Homo sapiens, UniProt O75874, R132H)
Assay: Assay for IDH1 R132H inhibitors (NADPH/aKG, resazurin detection)
Assay type: biochemical
Conditions: enzyme assay of Example 12; read-out: IDH1R132H IC50
pIC50: −log10 of the molar value.
Reported Endpoint: pIC50

N#Cc1cc(-c2cccc3cnccc23)c(C2CC2)nc1N1CCN(C(=O)CCC=O)[C@H](C2CC2)C1 | 6.00 to 6.30
N#Cc1cc(-c2cnn(CC(N)=O)c2)c(C2CC2)nc1N1CCN(C(=O)C2CC2)[C@H](C2CC2)C1 | 6.00 to 6.30
COCCC(=O)N1CCN(c2nc(C3CC3)c(-c3cncc4ccccc34)c(C)c2C#N)C[C@H]1C | > 6.30
C=Cc1cc(-c2c(C3CC3)nc(N3CCN(C(=O)CCC4CCC4)[C@H](C4CC4)C3)c(C#N)c2C)ccn1 | > 6.30
N#Cc1cc(-c2ccc3ncsc3c2)c(C2CC2)nc1N1CCN(C(=O)C2CC2)[C@H](C2CC2)C1 | > 6.30

Supply pIC50 value. Item: "C=Cc1cc(Nc2cc(C#N)c(N3CCN(C(=O)CCOC)[C@H](C4CC4)C3)nc2C2CC2)ccn1"
> 6.30

Supply pIC50 value. Item: "COCCC(=O)N1CCN(c2nc(C3CC3)c(-c3cccc(C(N)=O)c3)cc2C#N)C[C@H]1C"
6.00 to 6.30

* * *

Target: IDH1 R132H (Homo sapiens, UniProt O75874, R132H)
Experiment: Assay for IDH1 R132H inhibitors (NADPH/aKG, resazurin detection)
Type: biochemical
Details: Table 3; enzyme assay, 50 minutes at room temperature; read-out: IC50 (IDH1 R132H Inhibition)
# maps each entry to its IC50

// worked examples, IC50 included
COCCC(=O)N1CCN(c2nc(C3CC3)c(-c3ccncc3)c(C)c2C#N)C[C@H]1C | ≤ 1 µM
COCCC(=O)N1CCN(c2nc(C3CC3)c(-c3ccc(F)c(Cl)c3)cc2C#N)C[C@H]1C | ≤ 1 µM
COc1cccc(-c2cc(C(C)C)nc(N3CCN(C(=O)c4ccoc4)[C@H](C)C3)c2C#N)c1 | 1 to 5 µM
COCCC(=O)N1CCN(c2nc(C(C)C)c(-c3ccc(OC(F)(F)F)cc3)cc2C#N)C[C@H]1C | 1 to 5 µM
CC(C)c1nc(N2CCN(C(=O)Cc3cccs3)[C@H](C)C2)c(C#N)cc1-c1ccc(C(F)(F)F)cc1 | 1 to 5 µM

Supply IC50 value. Item: "CC(C)c1nc(N2CCN(C(=O)Cc3ccccc3)CC2)c(C#N)cc1-c1ccccc1"
1 to 5 µM

Supply IC50 value. Item: CC1CN(c2nc(-c3ccccc3)c(-c3ccccc3)cc2C#N)CCN1C(=O)c1ccoc1 (stereo not drawn)
5 to 15 µM

Supply IC50 value. Item: "COCCC(=O)N1CCN(c2nc(C3CC3)c(-c3cccc(F)c3)c(C)c2C#N)C[C@H]1C"
≤ 1 µM

Supply IC50 value. Item: "COCCC(=O)N1CCN(c2nc(C(C)C)c(-c3cccc(OC)c3)cc2C#N)C[C@H]1C"
≤ 1 µM

Supply IC50 value. Item: "COCCC(=O)N1CCN(c2nc(C(C)C)c(-c3cccc4ccccc34)cc2C#N)C[C@H]1C"
1 to 5 µM

Supply IC50 value. Item: "CC(=O)Oc1ccccc1-c1cc(C(C)C)nc(N2CCN(C(=O)c3ccoc3)[C@H](C)C2)c1C#N"
1 to 5 µM

Supply IC50 value. Item: "CCOc1ccccc1-c1cc(C(C)C)nc(N2CCN(C(=O)c3ccoc3)[C@H](C)C2)c1C#N"
1 to 5 µM

Supply IC50 value. Item: "CC(C)c1nc(N2CCN(C(=O)c3ccoc3)[C@H](C(C)C)C2)c(C#N)cc1-c1ccc(C(F)(F)F)cc1"
1 to 5 µM

Supply IC50 value. Item: "Cc1cccc(-c2cc(C#N)c(N3CCN(C(=O)Cc4cccs4)[C@H](C)C3)nc2C(C)C)c1"
1 to 5 µM

Supply IC50 value. Item: CC(C)c1nc(N2CCN(C(=O)c3ccoc3)C(C)C2)c(C#N)cc1-c1ccccc1 (stereo not drawn)
1 to 5 µM

Supply IC50 value. Item: CC(C)c1cc(-c2cccc(F)c2)c(C#N)c(N2CC(C)N(C(=O)c3ccco3)C(C)C2)n1 (stereo not drawn)
5 to 15 µM

Supply IC50 value. Item: "COCCC(=O)N1CCN(c2nc(C3CC3)c(-c3ccc(OC(F)(F)F)cc3)c(C)c2C#N)C[C@H]1C"
≤ 1 µM

Supply IC50 value. Item: "COCCC(=O)N1CCN(c2nc(C(C)C)c(-c3cc4ccccc4o3)cc2C#N)C[C@H]1C"
1 to 5 µM

* * *

Target: IDH1 R132H (Homo sapiens, UniProt O75874, R132H)
Assay: Assay for IDH1 R132H inhibitors (NADPH/aKG, resazurin detection)
Format: biochemical
Settings: enzyme assay of Example 12; read-out: IDH1R132H IC50
pIC50: −log10 of the molar value.
Reported Endpoint: pIC50

N#Cc1cc(-c2cc(Cl)nc3ccccc23)c(C2CC2)nc1N1CCN(C(=O)C2CC2)[C@H](C2CC2)C1 | 6.00 to 6.30
C=CC(=O)Nc1cccc(-c2cc(C#N)c(N3CCN(C(=O)C4CC4)[C@H](C4CC4)C3)nc2C2CC2)c1 | > 6.30
C=Cc1cc(-c2cc(C#N)c(N3CCN(C(=O)CC4CCCO4)[C@H](C4CC4)C3)nc2C2CC2)ccn1 (stereo partly drawn) | > 6.30
C/C=C/C(=O)Nc1cccc(-c2cc(C#N)c(N3CCN(C(=O)CCOC)[C@H](C)C3)nc2C2CC2)c1 | > 6.30
C=Cc1ccnc(Nc2cc(C#N)c(N3CCN(C(=O)CCC4CCO4)[C@H](C4CC4)C3)nc2C2CC2)c1 (stereo partly drawn) | > 6.30

Supply pIC50 value. Item: "C=Cc1cc(-c2cc(C#N)c(N3CCN(C(=O)CCO)[C@H](C)C3)nc2C2CC2)c2cccnc2n1"
> 6.30

Supply pIC50 value. Item: "COCCC(=O)N1CCN(c2nc(C3CC3)c(-c3cccc(NC(=O)/C=C/CN(C)C)c3)cc2C#N)C[C@H]1C"
6.00 to 6.30

Supply pIC50 value. Item: "C=Cc1ncc2c(-c3cc(C#N)c(N4CCN(C(=O)CCO)[C@H](C)C4)nc3C3CC3)cccc2n1"
> 6.30

Supply pIC50 value. Item: "COCCC(=O)N1CCN(c2nc(C3CC3)c(-c3cccc4nonc34)cc2C#N)C[C@H]1C"
6.00 to 6.30

Supply pIC50 value. Item: "COCCC(=O)N1CCN(c2nc(C3CC3)c(-c3c(C)noc3C)c(C)c2C#N)C[C@H]1C"
> 6.30

Supply pIC50 value. Item: "COCCC(=O)N1CCN(c2nc(C3CC3)c(-c3cccc4ncccc34)cc2C#N)C[C@H]1C"
> 6.30

Supply pIC50 value. Item: "C=Cc1cc(-c2cc(C#N)c(N3CCN(C(=O)CCOC)[C@H](C)C3)nc2C2CC2)cc(OC)n1"
6.00 to 6.30

Supply pIC50 value. Item: N#Cc1cc(-c2cccc3cnccc23)c(C2CC2)nc1N1CCN(C(=O)CC(F)(F)F)C(C(F)(F)F)C1 (stereo not drawn)
6.00 to 6.30

Supply pIC50 value. Item: "C=CS(=O)(=O)N(c1cccc(-c2cc(C#N)c(N3CCN(C(=O)C4CC4)[C@H](C4CC4)C3)nc2C2CC2)c1)S(=O)(=O)C=C"
> 6.30

Supply pIC50 value. Item: "CNc1cccc(-c2cc(C#N)c(N3CCN(C(=O)CCOC)[C@H](C)C3)nc2C2CC2)c1"
6.00 to 6.30
